- systemUnderTest: Human Thrombin (Homo sapiens)
- testName: Inhibition of the amidase activity of thrombin (Kass)
- Format: biochemical
- studyConditions: chromogenic substrate N-benzoyl-Phe-Val-Arg-p-nitroanilide; mean over range of concentrations
testReadout: Kass × 10^6 (L/mole) Human Thrombin

INSERT INTO results (compound, systemundertest, testreadout, recordedresult) VALUES
  ('CCS(=O)(=O)N[C@H](CC1CCCCC1)C(=O)N1CCC[C@H]1C(=O)NCc1ccnc(N)c1.Cl [Example 83]', 'Human Thrombin (Homo sapiens)', 'Kass × 10^6 (L/mole) Human Thrombin', '2.4 × 10^6 L/mole'),
  ('Cl.N=C(N)c1ccc(CCCNC(=O)C2CCCN2C(=O)C2NCCC3CCCCC32)cc1 (stereo not drawn) [Example 32]', 'Human Thrombin (Homo sapiens)', 'Kass × 10^6 (L/mole) Human Thrombin', '0.13 × 10^6 L/mole');

IN: // fetch Kass × 10^6 (L/mole) Human Thrombin; item: CS(=O)(=O)CC(=O)N[C@H](CC1CCCCC1)C(=O)N1CCC[C@H]1C(=O)NCc1ccc(C(=N)N)cc1 [Example 92] ; system: Human Thrombin (Homo sapiens)
OUT: 130 × 10^6 L/mole

---

Quick reference: Human Plasma Anticoagulation 2x Clotting time APTT of the listed items.
- System: Human Plasma
- testName: Human plasma anticoagulation, activated partial thromboplastin time (APTT)
- Type: biochemical
- studyConditions: concentration required to double the clotting time

Known Human Plasma Anticoagulation 2x Clotting time APTT results, listed for orientation:
INSERT INTO assay_data (compound, systemundertest, recordedresult) VALUES
  ('O=C(O)CN[C@H](CC1CCCCC1)C(=O)N1CCC[C@H]1C(=O)NCCCC1CCNCC1', 'Human Plasma', '> 91,000 ng/mL'),
  ('N=C(N)c1ccc(CNC(=O)[C@@H]2C[C@H](Oc3ccccc3)CN2C(=O)[C@H]2CCCCN2)cc1 (relative stereo)', 'Human Plasma', '2,300 ng/mL'),
  ('CCS(=O)(=O)N[C@H](CC1CCCCC1)C(=O)N1CCC[C@H]1C(=O)NCc1ccnc(N)c1.Cl', 'Human Plasma', '1,000 ng/mL'),
  ('N=C(N)N1CCC(CCNC(=O)[C@@H]2CCCN2C(=O)[C@@H](CC2CCCCC2)NCC(=O)O)CC1', 'Human Plasma', '360 ng/mL'),
  ('N=C(N)c1ccc(CNC(=O)[C@@H]2CCCN2C(=O)[C@@H](CCC2CCCCC2)NCC(=O)O)cc1', 'Human Plasma', '100 ng/mL');

IN: // fetch Human Plasma Anticoagulation 2x Clotting time APTT; item: Cl.N=C(N)C1=CNC(CNC(=O)[C@@H]2CCCN2C(=O)[C@@H](CC2CCCCC2)NCC(=O)O)CC1 (stereo partly shown) ; system: Human Plasma
OUT: 49 ng/mL

IN: // fetch Human Plasma Anticoagulation 2x Clotting time APTT; item: CCS(=O)(=O)N[C@H](Cc1ccccc1)C(=O)N1CCC[C@H]1C(=O)NCCc1ccc(C(=N)N)cc1 ; system: Human Plasma
OUT: 870 ng/mL

---

- systemUnderTest: t-PA (Homo sapiens)
- Construct: purchased American Diagnostica, Greenwich, Conn
- Sequence (P00750 36-562): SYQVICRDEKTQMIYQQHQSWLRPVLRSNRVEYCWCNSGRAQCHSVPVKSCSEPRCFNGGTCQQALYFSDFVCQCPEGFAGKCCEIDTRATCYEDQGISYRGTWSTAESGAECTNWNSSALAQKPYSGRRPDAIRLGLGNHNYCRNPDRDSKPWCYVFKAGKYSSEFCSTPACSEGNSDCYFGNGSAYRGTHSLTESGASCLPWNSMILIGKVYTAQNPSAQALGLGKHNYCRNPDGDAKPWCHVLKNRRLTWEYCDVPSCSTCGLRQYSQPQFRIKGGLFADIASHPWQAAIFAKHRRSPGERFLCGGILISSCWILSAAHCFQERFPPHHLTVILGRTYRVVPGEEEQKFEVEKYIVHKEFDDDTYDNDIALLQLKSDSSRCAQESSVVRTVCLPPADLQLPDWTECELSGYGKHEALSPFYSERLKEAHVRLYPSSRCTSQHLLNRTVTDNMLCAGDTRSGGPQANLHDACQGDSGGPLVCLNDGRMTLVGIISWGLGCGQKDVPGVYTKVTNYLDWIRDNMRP
- testName: Kass, t-PA chromogenic substrate assay
- Type: biochemical
- studyConditions: substrate H-D-Ile-Pro-Arg-p-nitroanilide
testReadout: Kass × 10^6 (L/mole) t-PA

INSERT INTO measurements (compound, recordedresult) VALUES
  ('CCS(=O)(=O)N[C@H](Cc1ccccc1)C(=O)N1CCC[C@H]1C(=O)NCCCc1cccc(C(=N)N)c1', '< 0.001 × 10^6 L/mole'),
  ('N=C(N)c1ccc(CNC(=O)[C@@H]2C[C@@H]3CCCC[C@@H]3N2C(=O)[C@H]2C[C@H]3CCCC[C@H]3CN2)cc1 (relative stereo)', '0.01 × 10^6 L/mole'),
  ('N=C(N)c1ccc(CNC(=O)[C@@H]2C[C@@H]3CCCC[C@@H]3N2C(=O)[C@@H](Cc2ccccc2)NCC(=O)O)cc1 (relative stereo)', '0.01 × 10^6 L/mole'),
  ('N=C(N)c1ccc(CCNC(=O)[C@@H]2CCCN2C(=O)[C@@H]2NCC[C@@H]3CCCC[C@@H]32)cc1', '< 0.001 × 10^6 L/mole'),
  ('CCS(=O)(=O)N[C@H](Cc1ccccc1)C(=O)N1CCC[C@H]1C(=O)NCc1cccc(NC(=N)N)c1', '< 0.001 × 10^6 L/mole');

IN: Let me know recorded Kass × 10^6 (L/mole) t-PA for Cl.N=C(N)c1ccc(CNC(=O)[C@@H]2CCCN2C(=O)[C@@H](CC2CCCCC2)NCCC(=O)O)cc1 , thanks.
OUT: 0.01 × 10^6 L/mole
